Biological target: AGTR1 (Homo sapiens, UniProt P30556)
Construct: host or cells: Pathunter CHO-K1 AGTR1 β-arrestin cell line (CHO-K1)
Assay: DiscoveRx β-arrestin2 recruitment assay (enzyme complementation, Pathunter CHO-K1 AGTR1 β-arrestin cell line)
Format: cell-based
Conditions: DiscoveRx β-arrestin2 recruitment
pEC50: −log10 of the molar value.
reported endpoint: pEC50

CCCCc1nc(Cl)c(C(=O)OCc2oc(=O)oc2C)n1Cc1ccc(-c2cc(-c3ccccc3)ccc2-c2nn[nH]n2)cc1 ... 7.51

(a) CCOc1nc2cccc(C(=O)O)c2n1Cc1ccc(-c2cc(-c3cnc4ccccc4c3)ccc2-c2nn[nH]n2)cc1
(b) CCCCC1=NC2(CCOC2)C(=O)N1Cc1ccc(-c2cc(-c3cccc(C)c3)ccc2-c2nnn[nH]2)cc1 (single isomer, unassigned) [Example 153]
// which entry has the larger pEC50 value, a or b ? Label of pick, please.
a
(a: 8.02, b: 7.54)

---

Target: AGTR1 (Homo sapiens, UniProt P30556)
Construct: host or cells: Pathunter CHO-K1 AGTR1 β-arrestin cell line (CHO-K1)
Test: DiscoveRx IP1 accumulation assay (HTRF), agonist mode, Pathunter CHO-K1 AGTR1 β-arrestin cell line
Type: cell-based
reported endpoint: IP-1 Ymax (%)

Would you please look over these solved cases?
CCc1nc2c(C)cc(C)nc2n1Cc1ccc(-c2cc(Oc3cc(C)ccn3)ccc2-c2nn[nH]n2)cc1 [Example 250] ... 28.9
CCCC1=NC2(CCCC2)C(=O)N1Cc1ccc(-c2cc(-c3cc(C)ccn3)ccc2-c2nn[nH]n2)cc1 [Example 116] ... 15.1
CCCCC1=NC2(CCOC2)C(=O)N1Cc1ccc(-c2cc(-c3ccccc3O)ccc2-c2nnn[nH]2)cc1 (single isomer, unassigned) [Example 151] ... 14.0
CCc1nc2c(C)cc(C)nc2n1Cc1ccc(-c2cc(N(C)c3ccccc3)ccc2-c2nn[nH]n2)cc1 [Example 94] ... 9.0
CCc1nc2c(C)cc(C)nc2n1Cc1ccc(-c2cc(N3CCc4ccccc43)ccc2-c2nn[nH]n2)cc1 [Example 96] ... 5.3

(a) CCc1nc2c(C)cc(C)nc2n1Cc1ccc(-c2cc(-n3ccc(C(F)(F)F)n3)ccc2-c2nnn[nH]2)cc1 [Example 219]
(b) CCC1=NC2(CCOC2)C(=O)N1Cc1ccc(-c2cc(-c3ccccc3)ccc2-c2nnn[nH]2)cc1 (single isomer, unassigned) [Example 168]
Between a and b , which one shows the smaller IP-1 Ymax (%) number? Label of pick, please.
a

---

Molecular target: AGTR1 (Homo sapiens)
Construct: host or cells: Pathunter CHO-K1 AGTR1 β-arrestin cell line (CHO-K1)
Sequence (P30556 1-359): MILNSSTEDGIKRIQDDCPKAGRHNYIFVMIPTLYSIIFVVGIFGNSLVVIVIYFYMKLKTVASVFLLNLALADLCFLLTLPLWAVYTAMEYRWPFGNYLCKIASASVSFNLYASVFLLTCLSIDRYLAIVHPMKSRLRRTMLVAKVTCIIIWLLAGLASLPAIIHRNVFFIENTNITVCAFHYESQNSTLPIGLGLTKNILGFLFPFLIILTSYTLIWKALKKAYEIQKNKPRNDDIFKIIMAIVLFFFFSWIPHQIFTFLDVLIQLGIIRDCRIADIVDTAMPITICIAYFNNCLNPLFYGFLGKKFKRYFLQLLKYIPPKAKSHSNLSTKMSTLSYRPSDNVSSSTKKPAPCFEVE
Test: DiscoveRx β-arrestin2 recruitment assay (enzyme complementation, Pathunter CHO-K1 AGTR1 β-arrestin cell line)
Type: cell-based
Details: DiscoveRx β-arrestin2 recruitment
reported endpoint: EC50 (nM)

CCc1nc2c(C)cc(C)nc2n1Cc1ccc(-c2cc(-c3ccc(CO)cc3)ccc2-c2nnn[nH]2)cn1 ... 51.9
CCc1nc2c(C)cc(C)nc2n1Cc1ccc(-c2cc(Oc3cc(N)ccn3)ccc2-c2nn[nH]n2)cc1 ... 23.8
CCOc1nc2cccc(C(=O)O)c2n1Cc1ccc(-c2cc(Oc3cccc(F)c3)ccc2-c2nn[nH]n2)cc1 ... 13.2
CCCc1nc(CC)c(C(=O)OCc2oc(=O)oc2C)n1Cc1ccc(-c2cc(-c3ccccc3)ccc2-c2nn[nH]n2)cc1 ... 11.7
CCc1nc2c(C)cc(C)nc2n1Cc1ccc(-c2cc(-c3ccccc3)ccc2-c2nn[nH]n2)c(F)c1 ... 30.1
CCCCc1ncc(C(=O)NCC)n1Cc1ccc(-c2cc(-c3ccccc3)ccc2-c2nn[nH]n2)cc1 ... 21.2
CCCCc1nc(Cl)c(C(=O)O)n1Cc1ccc(-c2cc(-c3ccccc3)ccc2-c2noc(=O)[nH]2)cc1 ... 9.6

---

# DiscoveRx β-arrestin2 Ymax (%) listing for each entry below
Molecular target: AGTR1 (Homo sapiens, UniProt P30556)
Construct: host or cells: Pathunter CHO-K1 AGTR1 β-arrestin cell line (CHO-K1)
Sequence (P30556 1-359): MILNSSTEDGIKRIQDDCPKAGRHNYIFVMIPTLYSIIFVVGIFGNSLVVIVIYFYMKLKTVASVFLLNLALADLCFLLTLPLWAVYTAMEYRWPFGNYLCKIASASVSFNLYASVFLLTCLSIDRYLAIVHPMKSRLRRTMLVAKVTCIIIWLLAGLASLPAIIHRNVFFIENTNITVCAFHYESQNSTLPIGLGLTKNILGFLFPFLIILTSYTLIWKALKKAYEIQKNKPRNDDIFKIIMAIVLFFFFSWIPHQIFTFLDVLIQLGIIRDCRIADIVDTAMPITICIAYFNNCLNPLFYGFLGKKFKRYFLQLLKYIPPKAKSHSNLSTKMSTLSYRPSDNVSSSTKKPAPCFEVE
Test: DiscoveRx β-arrestin2 recruitment assay (enzyme complementation, Pathunter CHO-K1 AGTR1 β-arrestin cell line)
Assay type: cell-based
Details: DiscoveRx β-arrestin2 recruitment, maximal response
Only the number, expressed in %, is required.

Would you please look over these solved cases?
CCc1nc2c(C)cc(C)nc2n1Cc1ccc(-c2cc(-c3ccccc3)ccc2-c2nn[nH]n2)cc1 ... 48.9
CCCCc1nc(Cl)c(C(=O)O)n1Cc1ccc(-c2cc(C3CCCCC3)ccc2-c2nn[nH]n2)cc1 ... 28.6
CCCC1=NC2(CCCC2)C(=O)N1Cc1ccc(-c2cc(-c3ccccc3)ccc2-c2nn[nH]n2)cc1 ... 46.5

Here is another molecule to look at.
Query (molecule): CCCC1=NC2(CCOC2)C(=O)N1Cc1ccc(-c2cc(-c3ccccc3O)ccc2-c2nnn[nH]2)cc1 (single isomer, unassigned) [Example 164] ; field requested: DiscoveRx β-arrestin2 Ymax (%)
58.7

---

# IP-1 Ymax (%) listing for each entry below
Molecular target: AGTR1 (Homo sapiens, UniProt P30556)
Construct: host or cells: Pathunter CHO-K1 AGTR1 β-arrestin cell line (CHO-K1)
Assay: DiscoveRx IP1 accumulation assay (HTRF), agonist mode, Pathunter CHO-K1 AGTR1 β-arrestin cell line
Format: cell-based
Only the number, expressed in %, is required.

Query IP-1 Ymax (%) on AGTR1 (Homo sapiens, UniProt P30556) for CCc1nc2c(C)cc(C)nc2n1Cc1ccc(-c2cc(-n3cc(C4=CCCC4)nn3)ccc2-c2nnn[nH]2)cc1
6.7

Query IP-1 Ymax (%) on AGTR1 (Homo sapiens, UniProt P30556) for CCCC1=NC2(CCOC2)C(=O)N1Cc1ccc(-c2cc(-c3ccccc3)ccc2-c2nn[nH]n2)cc1 (single isomer, unassigned)
8.6

---

# BRET β-Arrestin2 High AT1R Expression Ymax (%) listing for each entry below
Molecular target: hAT1R (Homo sapiens)
Experiment: BRET β-arrestin2 biosensor assay, higher receptor expression (hAT1R 5 ng/well), HEK293 cells
Format: cell-based
Only the number, expressed in %, is required.

Would you please look over these solved cases?
CCCCc1ncc(C(=O)NC2CCC2)n1Cc1ccc(-c2cc(-c3ccccc3)ccc2-c2nn[nH]n2)cc1 [Example 380] ... 76.0
CCc1nc2c(C)cc(C)nc2n1Cc1ccc(-c2cc(-n3cc(C4=CCCC4)nn3)ccc2-c2nnn[nH]2)cc1 [Example 229] ... 82.1
CCCCc1nc(Cl)c(C(=O)O)n1Cc1ccc(-c2cc(-c3ccccc3)ccc2-c2nn[nH]n2)cc1 [Example 384] ... 83.8
CCCCC1=NC2(CCCC2)C(=O)N1Cc1ccc(-c2cc(-c3ccccc3)ccc2-c2noc(=O)[nH]2)cn1 [Example 453] ... 95.9
CCCCc1ncc(C(=O)NCC)n1Cc1ccc(-c2cc(-c3ccccc3)ccc2-c2nn[nH]n2)cc1 [Example 379] ... 72.7

Query (compound): CCCCC1=NC2(CCCC2)C(=O)N1Cc1ccc(-c2cc(-c3cncc(OC)c3)ccc2-c2nn[nH]n2)cc1 [Example 132] ; field requested: BRET β-Arrestin2 High AT1R Expression Ymax (%)
22.0

Query (compound): CCCCc1nc(Cl)c(C(=O)O)n1Cc1ccc(-c2cc(-c3cccc4[nH]ccc34)ccc2-c2nn[nH]n2)cc1 [Example 392] ; field requested: BRET β-Arrestin2 High AT1R Expression Ymax (%)
79.1
